Reported MFI values follow for various binders
- Tested On: PD-L1 (human)
- Sequence (chain, as listed by the source): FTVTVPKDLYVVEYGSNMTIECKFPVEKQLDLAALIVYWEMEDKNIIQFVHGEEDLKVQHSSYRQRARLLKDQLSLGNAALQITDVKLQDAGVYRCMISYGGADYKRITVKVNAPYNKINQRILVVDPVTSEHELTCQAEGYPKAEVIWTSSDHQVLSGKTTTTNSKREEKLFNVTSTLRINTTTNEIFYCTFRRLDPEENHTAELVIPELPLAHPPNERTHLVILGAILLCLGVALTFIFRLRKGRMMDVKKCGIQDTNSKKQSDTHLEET
- Assay Comment: flow cytometry, cells expressing PD-L1
Write down the numeric answer in MFI and omit the unit.

Reference set (2 entries):
Binder: variant CD80 A91G/L102S (Fc fusion) VIHVTKEVKEVATLSCGHNVSVEELAQTRIYWQKEKKMVLTMMSGDMNIWPEYKNRTIFDITNNLSIVILALRPSDEGTYECVVLKYEKDGFKREHLAEVTSSVKADFPTPSISDFEIPTSNIRRIICSTSGGFPEPHLSWLENGEELNAINTTVSQDPETELYAVSSKLDFNMTTNHSFMCLIKYGHLRVNQTFNWNTTKQEHFPDN
MFI, MFI: 5

Binder: variant CD80 R29V/M43Q/E81R/L85I/K89R/D90L/A91E/F92N/K93Q/R94G (Fc fusion) VIHVTKEVKEVATLSCGHNVSVEELAQTVIYWQKEKKMVLTMQSGDMNIWPEYKNRTIFDITNNLSIVILALRPSDEGTYRCVVIKYERLENQGEHLAEVTLSVKADFPTPSISDFEIPTSNIRRIICSTSGGFPEPHLSWLENGEELNAINTTVSQDPETELYAVSSKLDFNMTTNHSFMCLIKYGHLRVNQTFNWNTTKQEHFPDN
MFI, MFI: 1580

Requested read-out: MFI. Entry: variant CD80 A91G/F92L/F108L/I118V/T120S (Fc fusion) VIHVTKEVKEVATLSCGHNVSVEELAQTRIYWQKEKKMVLTMMSGDMNIWPEYKNRTIFDITNNLSIVILALRPSDEGTYECVVLKYEKDGLKREHLAEVTLSVKADLPTPSISDFEVPSSNIRRIICSTSGGFPEPHLSWLENGEELNAINTTVSQDPETELYAVSSKLDFNMTTNHSFMCLIKYGHLRVNQTFNWNTTKQEHFPDN 16
